System: Streptococcus pyogenes SSI-9
Assay: Antibacterial activity assay of bead-derived peptides (three concentrations)
Assay type: cell-based
Parameters: key: +++: inhibition by the 640-fold diluted peptide solution; ++: inhibition by the 160-fold diluted solution; +: inhibition by the 40-fold diluted solution; -: no inhibition
Details: S. pyogenes, bead-derived peptide solution, three concentrations
Procedure: Each type of assay must be simplified and miniaturized to assess the activities of the library peptides in a 96-well format for the high-throughput screening. Next, the peptides in groups A and B were subjected to the antibacterial assay and structural determination. Three peptide concentrations were applied to evaluate the growth inhibition of S. pyogenes and determine the antibacterial activity. […] Finally, the structures of the peptides were determined. […]
Where a SMILES comes first, the peptide text is derived from it. [ ]: non-standard residue; d: D form. The star is where a group is joined. NHCH2CH2OH = OCCN*; For = O=C*

molecule	antibacterial activity
CC(C)C[C@@H](NC(=O)[C@H](C)NC(=O)CNC(=O)[C@@H](NC=O)C(C)C)C(=O)N[C@@H](C)C(=O)N[C@@H](C(=O)N[C@H](C(=O)N[C@H](CC(C)C)C(=O)N[C@@H](Cc1c[nH]c2ccccc12)C(=O)N[C@H](CC(C)C)C(=O)N[C@@H](Cc1c[nH]c2ccccc12)C(=O)N[C@@H](C(=O)N[C@@H](Cc1c[nH]c2ccccc12)C(=O)N[C@H](CC(C)C)C(=O)N[C@@H](Cc1c[nH]c2ccccc12)C(=O)NCCO)C(C)C)C(C)C)C(C)C [compound 3847] (For-VGA[dL]A[dV]V[dL]W[dL]W[dV]W[dL]W-NHCH2CH2OH)	+
CNC(=O)C[C@@H](NC(=O)[C@H](C)NC(=O)[C@@H](CC(C)C)NC(=O)[C@H](C)NC(=O)CNC(=O)[C@@H](NC=O)C(C)C)C(=O)N[C@H](C(=O)N[C@@H](C(=O)N[C@@H](Cc1c[nH]c2ccccc12)C(=O)N[C@H](CC(C)C)C(=O)N[C@@H](Cc1c[nH]c2ccccc12)C(=O)N[C@@H](C(=O)N[C@@H](Cc1c[nH]c2ccccc12)C(=O)N[C@H](CC(C)C)C(=O)N[C@@H](Cc1c[nH]c2ccccc12)C(=O)NCCO)C(C)C)C(C)C)C(C)C [compound 13123] (For-VGA[dL]A[dD](NHMe)V[dV]W[dL]W[dV]W[dL]W-NHCH2CH2OH)	-

* * *

system: Streptococcus pyogenes SSI-9; experiment: Antibacterial activity assay of bead-derived peptides (three concentrations); format: cell-based; set-up: key: +++: inhibition by the 640-fold diluted peptide solution; ++: inhibition by the 160-fold diluted solution; +: inhibition by the 40-fold diluted solution; -: no inhibition; settings: S. pyogenes, bead-derived peptide solution, three concentrations
Where a SMILES comes first, the peptide text is derived from it. [ ]: non-standard residue; d: D form. The star is where a group is joined. NHCH2CH2OH = OCCN*; For = O=C*

compound	antibacterial activity
CNC(=O)C[C@@H](NC(=O)[C@@H](NC(=O)[C@H](NC(=O)[C@H](C)NC(=O)[C@H](NC(=O)[C@H](C)NC(=O)CNC(=O)[C@@H](NC=O)C(C)C)C(C)C)C(C)C)C(C)C)C(=O)N[C@@H](Cc1c[nH]c2ccccc12)C(=O)N[C@H](CC(C)C)C(=O)N[C@@H](Cc1c[nH]c2ccccc12)C(=O)N[C@H](CC(C)C)C(=O)N[C@@H](Cc1c[nH]c2ccccc12)C(=O)N[C@@H](C(=O)N[C@@H](Cc1c[nH]c2ccccc12)C(=O)NCCO)C(C)C [compound 12373] (For-VGA[dV]A[dV]V[dD](NHMe)W[dL]W[dL]W[dV]W-NHCH2CH2OH)	-
CC(C)C[C@@H](NC(=O)[C@H](Cc1c[nH]c2ccccc12)NC(=O)[C@H](NC(=O)[C@H](Cc1c[nH]c2ccccc12)NC(=O)[C@H](NC(=O)[C@H](Cc1c[nH]c2ccccc12)NC(=O)[C@H](NC(=O)[C@@H](NC(=O)[C@H](NC(=O)[C@H](C)NC(=O)[C@H](NC(=O)[C@H](C)NC(=O)CNC(=O)[C@@H](NC=O)C(C)C)[C@H](C)O)C(C)C)C(C)C)C(C)C)C(C)C)C(C)C)C(=O)N[C@@H](Cc1c[nH]c2ccccc12)C(=O)NCCO [compound 9354] (For-VGA[dT]A[dV]V[dV]W[dV]W[dV]W[dL]W-NHCH2CH2OH)	-

* * *

system: Streptococcus pyogenes SSI-9; test: Antibacterial activity assay of bead-derived peptides (three concentrations); type: cell-based; set-up: key: +++: inhibition by the 640-fold diluted peptide solution; ++: inhibition by the 160-fold diluted solution; +: inhibition by the 40-fold diluted solution; -: no inhibition; settings: S. pyogenes, bead-derived peptide solution, three concentrations
Where a SMILES comes first, the peptide text is derived from it. [ ]: non-standard residue; d: D form. The star is where a group is joined. NHCH2CH2OH = OCCN*; For = O=C*

molecule	antibacterial activity
CC(C)C[C@@H](NC(=O)[C@H](C)NC(=O)[C@H](NC(=O)[C@H](C)NC(=O)CNC(=O)[C@@H](NC=O)C(C)C)[C@H](C)O)C(=O)N[C@H](C(=O)N[C@H](CC(C)C)C(=O)N[C@@H](Cc1c[nH]c2ccccc12)C(=O)N[C@@H](C(=O)N[C@@H](Cc1c[nH]c2ccccc12)C(=O)N[C@H](CC(C)C)C(=O)N[C@@H](Cc1c[nH]c2ccccc12)C(=O)N[C@@H](C(=O)N[C@@H](Cc1c[nH]c2ccccc12)C(=O)NCCO)C(C)C)[C@H](C)O)C(C)C [compound 6248] (For-VGA[dT]A[dL]V[dL]W[dT]W[dL]W[dV]W-NHCH2CH2OH)	-

* * *

test system: Streptococcus pyogenes SSI-9; test: Antibacterial activity assay of bead-derived peptides (three concentrations); type: cell-based; design: key: +++: inhibition by the 640-fold diluted peptide solution; ++: inhibition by the 160-fold diluted solution; +: inhibition by the 40-fold diluted solution; -: no inhibition; details: S. pyogenes, bead-derived peptide solution, three concentrations
Where a SMILES comes first, the peptide text is derived from it. [ ]: non-standard residue; d: D form. The star is where a group is joined. NHCH2CH2OH = OCCN*; For = O=C*
measured-property: antibacterial activity

compound	target-desc	recorded-measurement
CNC(=O)C[C@@H](NC(=O)[C@@H](NC(=O)[C@H](NC(=O)[C@H](C)NC(=O)[C@@H](CC(C)C)NC(=O)[C@H](C)NC(=O)CNC(=O)[C@@H](NC=O)C(C)C)C(C)C)C(C)C)C(=O)N[C@@H](Cc1c[nH]c2ccccc12)C(=O)N[C@H](CC(C)C)C(=O)N[C@@H](Cc1c[nH]c2ccccc12)C(=O)N[C@@H](C(=O)N[C@@H](Cc1c[nH]c2ccccc12)C(=O)N[C@@H](C(=O)N[C@@H](Cc1c[nH]c2ccccc12)C(=O)NCCO)C(C)C)C(C)C [compound 2932] (For-VGA[dL]A[dV]V[dD](NHMe)W[dL]W[dV]W[dV]W-NHCH2CH2OH)	Streptococcus pyogenes SSI-9	-
CC(C)C[C@@H](NC(=O)[C@H](Cc1c[nH]c2ccccc12)NC(=O)[C@H](NC(=O)[C@H](Cc1c[nH]c2ccccc12)NC(=O)[C@@H](CC(C)C)NC(=O)[C@@H](NC(=O)[C@H](NC(=O)[C@H](C)NC(=O)[C@H](NC(=O)[C@H](C)NC(=O)CNC(=O)[C@@H](NC=O)C(C)C)C(C)C)C(C)C)C(C)C)C(C)C)C(=O)N[C@@H](Cc1c[nH]c2ccccc12)C(=O)N[C@@H](C(=O)N[C@@H](Cc1c[nH]c2ccccc12)C(=O)NCCO)[C@H](C)O [compound 8580] (For-VGA[dV]A[dV]V[dL]W[dV]W[dL]W[dT]W-NHCH2CH2OH)	Streptococcus pyogenes SSI-9	+
CC(C)C[C@@H](NC(=O)[C@H](C)NC(=O)CNC(=O)[C@@H](NC=O)C(C)C)C(=O)N[C@@H](C)C(=O)N[C@H](CC(C)C)C(=O)N[C@H](C(=O)N[C@H](CC(C)C)C(=O)N[C@@H](Cc1c[nH]c2ccccc12)C(=O)N[C@H](CC(C)C)C(=O)N[C@@H](Cc1c[nH]c2ccccc12)C(=O)N[C@H](CC(C)C)C(=O)N[C@@H](Cc1c[nH]c2ccccc12)C(=O)N[C@H](CC(C)C)C(=O)N[C@@H](Cc1c[nH]c2ccccc12)C(=O)NCCO)C(C)C [compound 2904] (For-VGA[dL]A[dL]V[dL]W[dL]W[dL]W[dL]W-NHCH2CH2OH)	Streptococcus pyogenes SSI-9	-
CC(C)C[C@@H](NC(=O)[C@H](C)NC(=O)CNC(=O)[C@@H](NC=O)C(C)C)C(=O)N[C@@H](C)C(=O)N[C@H](CC(C)C)C(=O)N[C@H](C(=O)N[C@@H](C(=O)N[C@@H](Cc1c[nH]c2ccccc12)C(=O)N[C@H](CC(C)C)C(=O)N[C@@H](Cc1c[nH]c2ccccc12)C(=O)N[C@@H](C(=O)N[C@@H](Cc1c[nH]c2ccccc12)C(=O)N[C@@H](C(=O)N[C@@H](Cc1c[nH]c2ccccc12)C(=O)NCCO)C(C)C)C(C)C)[C@H](C)O)C(C)C [compound 8130] (For-VGA[dL]A[dL]V[dT]W[dL]W[dV]W[dV]W-NHCH2CH2OH)	Streptococcus pyogenes SSI-9	-
